assay.protocol: NCI Yeast Anticancer Drug Screen. Data for the bub3 strain (AID 167)
details: S. cerevisiae bub3 mutant strain, at 50.0 µM
The panel holds about 79,000 compounds, 15% with a hit somewhere; the sample as a whole holds those more often. Activity calls are given as the source filed them. No stated cut-off is given here; in the data, active means growth inhibition above about 70%; inactive means the rest.
Valid outcomes are listed here; reply with one: t = active, f = inactive

CCCCCCCCCCCCCCCCN(C)c1ccc(S(=O)(=O)O)cc1[N+](=O)[O-]
t

### Prompt Hi, sorry to bother you, what did the test record for CN(C)C(=S)/N=c1\sn(C)/c(=N\C(=S)N(C)C)n1C ?
### Response f

### Prompt Hi, sorry to bother you, what did the test record for Clc1cc2n[nH]nc2c(Cl)c1Cl ?
### Response t

### Prompt Hi, sorry to bother you, what did the test record for CC1=C(C(=O)Nc2cccc(Cl)c2)C(c2ccc([N+](=O)[O-])cc2)C(C(=O)Nc2cccc(Cl)c2)=C(C)N1 ?
### Response t

### Prompt Hi, sorry to bother you, what did the test record for Oc1ccccc1C1N(Cc2ccc(Cl)cc2)CCN1Cc1ccc(Cl)cc1 ?
### Response f

### Prompt Hi, sorry to bother you, what did the test record for Cc1ccccc1NC(=O)C1C(=O)N(c2ccccc2C)C(=O)/C1=N/O (stereo not given) ?
### Response f

### Prompt Hi, sorry to bother you, what did the test record for O=S(=O)(c1ccc(NC(=S)NCc2ccncc2)cc1)N1CCCCC1 ?
### Response f

### Prompt Hi, sorry to bother you, what did the test record for CCN(CC)CCNc1c(OC)cc(C)c2sc3ccccc3c(=O)c12 ?
### Response f

### Prompt Hi, sorry to bother you, what did the test record for C/C(=N/NC(N)=S)C(CN1CCOCC1)C(C1=C(O)c2ccccc2OC1)c1ccccc1 (stereo not given) ?
### Response t

### Prompt Hi, sorry to bother you, what did the test record for c1cc[c]([Sn]([O]c2cccc3cccnc23)([c]2ccccc2)[c]2ccccc2)cc1 ?
### Response t
